// provenance: patent US10781208B2

Molecular target: wild-type human ALK (Homo sapiens, UniProt Q9UM73)
Construct: The cytoplasmic domain (amino acid 1058-1620) of wild-type human ALK protein; GST (N); purchased Carna Biosciences, Inc (Japan)
Sequence (Q9UM73 1058-1620): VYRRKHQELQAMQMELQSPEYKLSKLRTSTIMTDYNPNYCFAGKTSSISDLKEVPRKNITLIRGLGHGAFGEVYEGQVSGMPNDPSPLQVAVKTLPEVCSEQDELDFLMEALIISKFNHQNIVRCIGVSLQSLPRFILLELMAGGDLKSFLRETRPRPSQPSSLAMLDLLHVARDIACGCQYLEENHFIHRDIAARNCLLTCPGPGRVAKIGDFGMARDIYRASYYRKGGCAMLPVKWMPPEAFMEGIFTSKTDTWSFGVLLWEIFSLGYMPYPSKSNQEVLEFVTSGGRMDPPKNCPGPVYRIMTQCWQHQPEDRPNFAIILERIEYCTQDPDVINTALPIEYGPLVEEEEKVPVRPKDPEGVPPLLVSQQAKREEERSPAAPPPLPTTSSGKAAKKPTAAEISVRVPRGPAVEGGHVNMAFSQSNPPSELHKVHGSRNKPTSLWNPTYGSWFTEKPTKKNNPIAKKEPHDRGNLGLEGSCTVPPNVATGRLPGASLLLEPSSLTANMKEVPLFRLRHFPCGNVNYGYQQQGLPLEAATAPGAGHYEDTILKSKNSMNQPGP
Assay: ALK kinase activity, Lance TR-FRET assay (wild-type)
Assay type: biochemical
Details: Table 2, ALK enzyme; read-out: Inhibitory activity (nM) ALK
Could you please mark Y for values of IC50 below 0.5 nM and N for values at or above it?

query: Is 0.5 nM strictly greater than the compound's reported IC50? compound: `COc1cc2c(=O)c3c4ccc(C#N)cc4[nH]c3n(C(C)C)c2c(F)c1C1=C[C@@H](C)N(C)[C@@H](C)C1`
result: Y

query: # TODO verify IC50 < 0.5 nM strictly for this compound: `COc1cc2c(=O)c3c4ccc(C#N)cc4[nH]c3n(C(C)C)c2c(F)c1C1=CCN(C2CCOCC2)CC1`
result: N

query: Threshold test, IC50 < 0.5 nM: `COc1cc2c(=O)c3c4ccc(C#N)cc4[nH]c3n(C(C)C)c2c(F)c1C1=CCNCC1`
result: N

query: Is it true that IC50 reported for COc1cc2c(=O)c3c4ccc(C#N)cc4[nH]c3n(C(C)C)c2c(F)c1C1CC2CCC(C1)N2C (stereo not shown) is less than 0.5 nM?
result: Y

query: Please indicate whether the reported IC50 of `COc1cc2c(=O)c3c4ccc(C#N)cc4[nH]c3n(C(C)C)c2c(F)c1C1=CCN(C)CC1` is strictly below 0.5 nM.
result: N

query: Is it true that IC50 reported for `COc1cc2c(=O)c3c4ccc(C#N)cc4[nH]c3n(C(C)C)c2c(F)c1C1=CC(C)(C)N(C)C(C)(C)C1` is less than 0.5 nM?
result: Y
